// reported GI50 for each item listed
Test system: SK-MEL-5 melanoma
Test: NCI tumour cell line growth inhibition, 48 h

Quick one: GI50 of "NC(N)=NCCCn1c2c(c3ccccc3c1=O)C(=O)c1ccccc1-2" ?
15.1 µM

Param item = "NC(=S)N/N=C/c1ccc(OC(=O)COc2ccc(Cl)cc2)cn1" ; retrieve measured GI50.
3.24 µM

Give its GI50 value. Item: CCN(CC)CCCC(C)Nc1c(C)cnc2cc(Cl)c(C)cc12 (configuration not stated)
3.92 µM

====

System: SF-295 CNS
Experiment: NCI tumour cell line growth inhibition, 48 h
Outcome Measure: TGI

Study these solved cases before continuing.
CN1CCCC2C(c3ccccc3)C(C3=NCCCC3)C(c3ccccc3)CC21 (configuration not stated) :: > 100 µM
Cc1cc(SCC(=O)c2ccccc2)nc2ccccc12 :: > 100 µM
CC(=O)OCC1OC(NC(=S)Nn2c(=O)[nH]c3ccccc3c2=O)C(OC(C)=O)C(OC(C)=O)C1OC(C)=O (configuration not stated) :: > 100 µM
O=C(O)CP(=S)(S)c1ccccc1 (configuration not stated) :: > 100 µM
O=C1c2ccccc2-c2c1c1ccccc1c(=O)n2Cc1ccccc1 :: > 100 µM

// lookup TGI for COc1ccc(C2C(C(=O)O)=C(CO)Oc3cc4c(cc32)OCO4)cc1 (configuration not stated)
> 100 µM

Requested read-out: TGI. Entry: "N.N.N.N.N.O=C([O-])c1nn[n-]n1.[Cl-].[Co+3]"
> 100 µM

Which value of TGI has been reported for CC1(C)C2CC(O)C1(C)CC2=O (configuration not stated) in the records?
> 100 µM

Returns the measured TGI for the input compound. Input: "Cn1c(-c2cccs2)cc(-c2cccs2)c1-c1cccs1"
> 100 µM

Would you kindly share the measured TGI for O=C(CC(O)(C(F)(F)F)C(F)(F)F)C(c1ccccc1)C(O)(C(F)(F)F)C(F)(F)F (configuration not stated) ?
> 100 µM

Consider the compound "COc1ccc(C(=O)c2cc(C)c(OC)c(C)c2)c(OC)c1N(C(=O)C(Cl)Cl)C(=O)C(Cl)Cl" and give its measured TGI.
> 100 µM

For the compound shown here, Cc1ccc2c(c1)C(=O)C1(C2)Cc2c(C)cccc2C1=O (configuration not stated) , give the reported TGI.
> 100 µM

====

TGI by entry:
Test system: SK-OV-3 ovarian
Assay: NCI tumour cell line growth inhibition, 48 h

For orientation, consider the following solved cases.
CCCCN=C(N)c1ccc(OCCSCCOc2ccc(C(N)=NCCCC)cc2)cc1 :: > 100 µM
O=C(/C=C/c1cccc([N+](=O)[O-])c1)N1CCN(CCOC(c2ccccc2)c2ccccc2)CC1 :: > 100 µM
COC(=O)C1=NC(=S)NC(c2ccccc2)C1c1nc2ccccc2s1 (configuration not stated) :: > 100 µM
O=C(CSc1ncccn1)N/N=C/c1ccccc1OCc1ccccc1 :: > 100 µM
Cc1ccc(S(=O)(=O)n2c(-c3ccccc3)c(-c3ccccc3)c3ccccc32)cc1 :: > 100 µM
CCOC(=O)NC(=O)c1cn(CCOCCOC(=O)NCCCCCCNC(=O)OCCOCCn2cc(C(=O)NC(=O)OCC)c(=O)[nH]c2=O)c(=O)[nH]c1=O :: > 100 µM
COc1c2c(cc3nc4ccccc4nc13)CCC(C(C)(C)O)C2 (configuration not stated) :: > 100 µM
CC(=O)C(C(=O)c1ccc(C)cc1)[C@@H]1OC(C)(C)O[C@@H]1[C@H]1COC(C)(C)O1 (some centres not stated) :: > 100 µM

Return reported TGI; argument: "COc1cc(OC)c(/C=C/C(=O)c2c(OC)cccc2OC)c(OC)c1"
> 100 µM
